- System: human HL60 cells
- test_method_notes: SWATH-MS proteomics, differential protein representation, akirin2 KO vs WT HL60 cells
- Type: cell-based
- experimental_parameters: KO vs WT HL60 cells; sheet "Under-represented in KO"
readout_label: Log (Fold Change)
Numbers only.

Examples from the recorded data:
sp¦P51159¦RB27A_HUMAN (protein, UniProt P51159 2-221, looked up) Ras-related protein Rab-27A: SDGDYDYLIKFLALGDSGVGKTSVLYQYTDGKFNSKFITTVGIDFREKRVVYRASGPDGATGRGQRIHLQLWDTAGQERFRSLTTAFFRDAMGFLLLFDLTNEQSFLNVRNWISQLQMHAYCENPDIVLCGNKSDLEDQRVVKEEEAIALAEKYGIPYFETSAANGTNISQAIEMLLDLIMKRMERCVDKSWIPEGVVRSNGHASTDQLSEEKEKGACGC
-0.2591
sp¦P25815¦S100P_HUMAN (protein, UniProt P25815 1-95, looked up) Protein S100-P: MTELETAMGMIIDVFSRYSGSEGSTQTLTKGELKVLMEKELPGFLQSGKDKDAVDKLLKDLDANGDAQVDFSEFIVFVAAITSACHKYFEKAGLK
-0.3222

Now look at this one.
The measured Log (Fold Change) associated with sp¦Q9NVJ2¦ARL8B_HUMAN (protein, UniProt Q9NVJ2 1-186, looked up) ADP-ribosylation factor-like …: MLALISRLLDWFRSLFWKEEMELTLVGLQYSGKTTFVNVIASGQFSEDMIPTVGFNMRKVTKGNVTIKIWDIGGQPRFRSMWERYCRGVNAIVYMIDAADREKIEASRNELHNLLDKPQLQGIPVLVLGNKRDLPNALDEKQLIEKMNLSAIQDREICCYSISCKEKDNIDITLQWLIQHSKSRRS reads -0.2663

Source listed as paper PMC8298264.
